Measured hemolysis at 2 h, 50 ug/ml, listed per entry for reference.
test: Haemolytic activity in sheep erythrocytes assessed as induction of haemolysis at 50 ug/ml incubated for 2 hrs relative to control; type: cell-based, Ovis aries, Erythrocyte; details: read-out: Activity
Express it in %; write the number only.

**Query** Item CC(C)CCOc1ccc2ccccc2c1-c1c(OCc2cn([C@H](CCCCN)C(=O)N[C@H](CCCNC(=N)N)Cn3cc(CCc4ccccc4)nn3)nn2)ccc2ccccc12.Cl.Cl has what recorded hemolysis at 2 h, 50 ug/ml?
**Result** 75.2

====

Measured MIC, listed per entry for reference.
test system: Klebsiella pneumoniae; experiment: Growth inhibition of Klebsiella pneumoniae ATCC 700603 incubated for 18 hrs; format: organism-based
Express it in µg/mL; write the number only.

Example results:
SMILES_STRUCTURE	PARAMETER	ENDPOINT_UNIT	RECORDED_VALUE
CC(C)CCOc1ccccc1-c1ccccc1OCc1cn([C@H](CCCNC(=N)N)C(=O)N[C@H](CCCCN)Cn2cc(C3CCCCC3)nn2)nn1.Cl.Cl	MIC	µg/mL	16
CC(C)CCOc1ccccc1-c1ccccc1OCc1cn([C@H](CCCCN)C(=O)N[C@H](CCCNC(=N)N)Cn2cc(Cc3ccccc3)nn2)nn1.Cl.Cl	MIC	µg/mL	32
CC(C)CCOc1ccccc1-c1ccccc1OCc1cn([C@H](CCCCN)C(=O)N[C@H](CCCNC(=N)N)Cn2cc(C3CCCCC3)nn2)nn1.Cl.Cl	MIC	µg/mL	16

**Query** Item CC(C)CCOc1ccc2ccccc2c1-c1c(OCc2cn([C@H](CCCCN)C(=O)N[C@H](CCCNC(=N)N)C(=O)NCc3ccccc3)nn2)ccc2ccccc12.Cl.Cl has what recorded MIC?
**Result** 32

**Query** Item CC(C)CCOc1ccc2ccccc2c1-c1c(OCc2cn([C@H](CCCCN)C(=O)N[C@H](CCCNC(=N)N)C(=O)NCCc3ccccc3)nn2)ccc2ccccc12.Cl.Cl has what recorded MIC?
**Result** 16

**Query** Item CC(C)CCOc1ccccc1-c1ccccc1OCc1cn([C@H](CCCCN)C(=O)N[C@H](CCCNC(=N)N)Cn2cc(CCc3ccccc3)nn2)nn1.Cl.Cl has what recorded MIC?
**Result** 16
